Below: a set of entries, each annotated with reported TGI.
- System: KM12 colon
- protocol_summary: NCI tumour cell line growth inhibition, 48 h

1) Cc1ccc(NC(=O)CC(=O)n2nc(C)c(N=Nc3ccc(S(=O)(=O)CCOS(=O)(=O)O)cc3)c2C)cc1	> 100 µM
2) COC1OC(COC(=O)NCCCCC(=O)C(F)(F)F)C(O)C(O)C1O (stereo not given)	> 100 µM
3) O=C1N[C@@H]([C@H](CCCCCO)OC(=O)c2ccccc2)CO1	> 100 µM
4) O=[N+]([O-])c1ccc(CS(=O)Cc2ccccc2)cc1 (stereo not given)	> 100 µM
5) O=C1CCc2cc3c(cc21)CC1(Cc2ccccc2C1)C3	> 100 µM

**Query** Notebook entry, KM12 colon assay: TGI of CCOC(=O)C1(Cc2c[nH]c3ccccc23)C(O)CCCN1C(C)=O (stereo not given) = ?
**Result** > 100 µM

**Query** Identify the measured TGI of COC(=O)[C@@]12OC[C@]34C([C@@H](O)C1O)[C@@]1(C)CC(=O)C(O)=C(C)C1C[C@H]3OC(=O)[C@H](OC(=O)CC(C)C(F)(F)F)[C@H]42 (stereo not given in full) for KM12 colon.
**Result** 0.563 µM

**Query** Query for KM12 colon: what TGI does the record show for CC(=O)c1cccc(NCn2nnc3ccccc32)c1 ?
**Result** > 100 µM

**Query** What TGI appears in the records for this compound with KM12 colon? CC(Oc1ccc(OCC2CCCCC2)cc1)C(=O)N(CCO)CCO (stereo not given)
**Result** > 100 µM

**Query** Short answer please: TGI, KM12 colon, entry O=C(CC(C(=O)c1ccsc1)c1ccccc1)c1cccs1 (stereo not given)
**Result** 88.6 µM

These data points were gathered from PubChem BioAssay (NCI).
